Source: the supplement of paper PMC9694430

- Tested on: LOC_OS05G43570-cb004
- assay explanation: thermal shift delta Tm vs DMSO control; higher = stronger stabilization (binding);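 also: purified Escherichia coli-expressed rice kinase domain construct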
- recorded conditions: 12.5 µM; protein concentration 2 µM
readout label: thermal shift delta Tm (°C)
Note: unit °C is implicit; provide only the numeric part.

# count of solved cases: 2
compound	readout label	recorded number
C=CC(=O)Nc1cccc(Oc2nc(Nc3ccc(N4CCN(C)CC4)cc3)nc3ccsc23)c1	thermal shift delta Tm	1.26
Cc1ccc(NC(=O)c2ccc(CN3CCN(C)CC3)cc2)cc1Nc1nc(-c2cccnc2)cs1 [Masitinib (AB1010)]	thermal shift delta Tm	0.52

query: Using known records, supply thermal shift delta Tm for CC1=C(C(=O)Nc2cc3cn[nH]c3cc2F)C(c2ccc(C(F)(F)F)cc2)CC(=O)N1 (centres undefined)
result: 1.08

query: Give the value of thermal shift delta Tm reported for the following: COc1ccc2c(Oc3ccc(NC(=O)c4c(C)n(CC(C)(C)O)n(-c5ccccc5)c4=O)nc3)ccnc2c1
result: 1.07

query: Provide only the value of recorded thermal shift delta Tm for Cc1ccc(NC(=O)c2cccc(N(C)C)c2)cc1NC(=O)c1ccc(O)cc1
result: 0.61

query: Provide measured thermal shift delta Tm value, entry: O=c1[nH]nc(Sc2ncc([N+](=O)[O-])s2)n1-c1ccc2c(c1)OCCO2
result: 0.84

query: Specify reported thermal shift delta Tm for the compound shown: C[C@@H](N)[C@H]1CC[C@H](C(=O)Nc2ccncc2)CC1
result: 0.43

query: Supply reported thermal shift delta Tm belonging to this compound: O=c1ccc2ccc(O)c(O)c2o1 [Daphnetin]
result: 0.83

query: Provide measured thermal shift delta Tm value, entry: COc1ncc(-c2cc(-c3ncc(CN4C[C@@H](C)O[C@@H](C)C4)o3)c3cn[nH]c3c2)cc1NS(C)(=O)=O
result: 0.39

----------
- Tested on: LOC_OS01G39600-cb002
- assay explanation: thermal shift delta Tm vs DMSO control; higher = stronger stabilization (binding)
- recorded conditions: 12.5 µM; protein concentration 2 µM
Where a name gives a salt, the structure may show the parent alone.
thermal shift delta Tm below 0.6 °C gives f; thermal shift delta Tm at or above it gives t.

Here's what some known entries look like.
compound	cat
Cc1c(NC(=O)c2ccc(C(C)(C)C)cc2)cccc1-c1cn(C)c(=O)c(Nc2ccc(C(=O)N3CCOCC3)cc2)n1	t
O=C(NOCC(O)CO)c1cc(Br)c(F)c(F)c1Nc1ccc(I)cc1F (stereo not given)	t
Cc1cc(Nc2nc(N[C@@H](C)c3ccc(F)cc3)c(C#N)cc2F)n[nH]1	t
CC(=O)c1c(C)c2cnc(Nc3ccc(N4CCNCC4)cn3)nc2n(C2CCCC2)c1=O	t
CC1(COc2ccc3c(c2)ncn3-c2ccc3cccc(N4CCC(N)CC4)c3n2)COC1	t

query: Please check the record N#CC1(c2ccc(NC(=O)c3cccnc3NCc3ccncc3)cc2)CCCC1 and state if its thermal shift delta Tm is at or above 0.6 °C.
result: f

query: I'd appreciate it if you could say whether C[C@@H]1CN(C(=O)c2ccc(NC(=O)c3cc(O[C@H](C)c4c(Cl)ccc(F)c4Cl)c(N)nn3)cc2)C[C@H](C)N1 has thermal shift delta Tm at least equal to 0.6 °C.
result: f

query: Is thermal shift delta Tm for CN1CCN(c2ccc3nc(-c4c(N)c5c(F)cccc5[nH]c4=O)[nH]c3c2)CC1 [Dovitinib (TKI-258) Dilactic Acid] at or above 0.6 °C?
result: t

query: Please check the record C[C@@H]1COC(Nc2ccc3ncnc(Nc4ccc(OCc5nccs5)c(Cl)c4)c3c2)=N1 and state if its thermal shift delta Tm is at or above 0.6 °C.
result: t

query: Assess whether reported thermal shift delta Tm for COc1ccc2c(c1)[C@]1(C[C@H]1c1ccc3c(/C=C/c4ccc(CN5C[C@@H](C)O[C@@H](C)C5)cc4)n[nH]c3c1)C(=O)N2 sits at 0.6 °C or higher.
result: t

query: Please check the record Cc1ccc(NC(=O)c2ccc(CN3CCN(C)CC3)cc2)cc1Nc1nccc(-c2cccnc2)n1 [Imatinib Mesylate (STI571)] and state if its thermal shift delta Tm is at or above 0.6 °C.
result: f

query: # bool: thermal shift delta Tm of CN1CCN(c2ccc(OC(F)(F)F)c(Nc3ncc4c(n3)-c3c(c(C(N)=O)nn3CCO)CC4)c2)CC1 >= 0.6 °C
result: f

query: Decide: is the reported value of thermal shift delta Tm for O=C(c1ccc(F)c(F)c1Nc1ccc(I)cc1F)N1CC(O)([C@@H]2CCCCN2)C1 equal to or greater than 0.6 °C?
result: f
